biological target: CD22beta (CD22b-Rg); assay: filter; settings: 2'-NH2 C and U; <5% bound, 4 C
test_readout: Kd

Query: Could you tell me which Kd is on file for GGGAGGACGAUGCGGAAGUGAAGCUAAAGCGGAGGGCCAUUCAGUUUCNCACCACAGACGACUCGCCCGA [F14.2] ?
Response: > 20 µM

Query: Check GGGAGGACGAUGCGGUCCAGAGCGUGAAGAUCAACGUCCCGGNGUCGAAGACAGACGACUCGCCCGA [F14.70] too.
Response: > 20 µM

====

Biological target: L-selectin (LS-Rg) (Homo sapiens)
Sequence: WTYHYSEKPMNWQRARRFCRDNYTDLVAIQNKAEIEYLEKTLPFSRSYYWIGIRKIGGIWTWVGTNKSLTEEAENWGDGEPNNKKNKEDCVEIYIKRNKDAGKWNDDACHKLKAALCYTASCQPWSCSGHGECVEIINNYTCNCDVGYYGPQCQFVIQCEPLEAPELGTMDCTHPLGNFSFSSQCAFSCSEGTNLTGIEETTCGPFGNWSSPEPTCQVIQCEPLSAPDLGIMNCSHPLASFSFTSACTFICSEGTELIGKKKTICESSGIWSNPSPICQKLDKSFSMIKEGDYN
Experiment: filter
Settings: 2'-F on all C and U; 37 C
test_readout: Kd (nM)
Just the number please, in nM, no unit attached.

Query: Could you tell me which Kd is on file for GGGAGGACGAUGCGGUUAGCCUACACUCUAGGUUCAGUUUUCGAAUCUUCCACCGCWGACGACUCGCCCGA [LF1618] ?
Response: 9.6

====

Molecular target: L-selectin (LS-Rg) (Homo sapiens)
Sequence: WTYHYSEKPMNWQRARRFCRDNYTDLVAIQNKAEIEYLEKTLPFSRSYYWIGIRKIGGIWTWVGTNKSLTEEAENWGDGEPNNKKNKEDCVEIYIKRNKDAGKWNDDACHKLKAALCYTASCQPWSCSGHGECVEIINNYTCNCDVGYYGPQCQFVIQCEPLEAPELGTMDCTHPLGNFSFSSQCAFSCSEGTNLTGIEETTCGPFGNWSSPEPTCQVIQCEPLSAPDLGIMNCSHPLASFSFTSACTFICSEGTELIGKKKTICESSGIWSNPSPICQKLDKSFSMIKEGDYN
Assay: filter
Conditions: 2'-NH2 on all C and U; 4 C, HSMC (Ca, Mg); Table 9 prints 5.8 pM (4 C), 1.7 nM room temp
test_readout: Kd
# include the unit after the value

Query: # query: Kd | item GGGAGGACGAUGCGGUAACAACAAUCAAGGCGGGUUYACCGCCCCAGUAUGAGUACAGACGACUCGCCCGA [F14.12] | system: L-selectin (LS-Rg) (Homo sapiens)
Response: 0.06 nM

====

Target: L-selectin (LS-Rg) (Homo sapiens)
Sequence: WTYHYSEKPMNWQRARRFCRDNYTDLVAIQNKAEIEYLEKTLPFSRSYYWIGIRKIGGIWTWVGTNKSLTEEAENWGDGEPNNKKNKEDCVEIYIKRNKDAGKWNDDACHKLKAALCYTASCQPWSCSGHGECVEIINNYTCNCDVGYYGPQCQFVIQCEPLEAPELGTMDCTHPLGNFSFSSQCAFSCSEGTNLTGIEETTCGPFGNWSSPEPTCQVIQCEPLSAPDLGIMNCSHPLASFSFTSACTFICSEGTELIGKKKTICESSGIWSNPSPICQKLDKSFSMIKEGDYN
Assay: filter
Conditions: 2'-NH2 on all C and U; 4 C; 7.2 nM at room temp
test_readout: pKd
In textbook form, pKd equals minus log to base ten of the concentration in mol/L.

Query: Could you tell me which pKd is on file for GGGAGGACGAUGCGGAAGUGAAGCUAAAGCGGAGGGCCAUUCAGUUUCNCACCACAGACGACUCGCCCGA [F14.2] ?
Response: 8.74

====

Target: Wheat germ agglutinin (WGA) (Triticum vulgare) (UniProt P10968)
Sequence: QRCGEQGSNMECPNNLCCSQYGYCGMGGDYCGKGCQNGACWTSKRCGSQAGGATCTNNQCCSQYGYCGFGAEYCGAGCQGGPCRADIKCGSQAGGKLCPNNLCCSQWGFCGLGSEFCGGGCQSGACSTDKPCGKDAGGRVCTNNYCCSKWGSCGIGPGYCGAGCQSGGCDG
Experiment: filter
Conditions: 2'-NH2 on all C and U; <5% bound at 1 uM WGA; estimate
pKd: −log10 of the molar value.
test_readout: pKd

Query: Could you tell me which pKd is on file for GGGAAAAGCGAAUCAUACACAAGACAGCGGCGGAGUCAGUGAAAGCGUGGGGGGYGCGGGAGGUCUACCCUGACGCUCCGCCAGAGACCAACCGAGAA [WGA ligand 6.14] ?
Response: < 4.70

====

Target: L-selectin on PBMC / lymphocytes (Homo sapiens)
Sequence: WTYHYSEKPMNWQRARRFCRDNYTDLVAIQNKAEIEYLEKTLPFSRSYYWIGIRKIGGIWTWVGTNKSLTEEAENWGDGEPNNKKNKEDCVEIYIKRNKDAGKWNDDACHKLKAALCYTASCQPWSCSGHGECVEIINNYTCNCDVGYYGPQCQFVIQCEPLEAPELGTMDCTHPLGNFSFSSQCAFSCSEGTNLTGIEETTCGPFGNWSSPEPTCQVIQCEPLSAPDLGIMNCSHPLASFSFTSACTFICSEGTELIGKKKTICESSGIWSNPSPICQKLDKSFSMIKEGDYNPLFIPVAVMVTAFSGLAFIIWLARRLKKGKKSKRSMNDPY
Settings: 2'-NH2 on all C and U; PBMC binding on ice; competed by DREG-56
test_readout: Kd (nM)
Just the number please, in nM, no unit attached.

Query: Could you tell me which Kd is on file for GGGAGGACGAUGCGGUAACAACAAUCAAGGCGGGUUYACCGCCCCAGUAUGAGUACAGACGACUCGCCCGA [F14.12] ?
Response: 1.3

====

Biological target: P-selectin (PS-Rg) (Homo sapiens) (UniProt P16109)
Sequence: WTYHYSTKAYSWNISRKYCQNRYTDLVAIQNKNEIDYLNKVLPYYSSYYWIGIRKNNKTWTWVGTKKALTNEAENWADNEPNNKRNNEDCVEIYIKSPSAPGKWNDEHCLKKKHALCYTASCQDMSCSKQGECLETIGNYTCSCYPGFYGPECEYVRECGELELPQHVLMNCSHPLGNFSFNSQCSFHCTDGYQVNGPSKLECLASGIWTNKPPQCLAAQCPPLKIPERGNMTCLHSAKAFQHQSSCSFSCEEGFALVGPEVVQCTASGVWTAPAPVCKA
Experiment: filter
Settings: 2'-NH2 C and U; HSMC, 4 C
test_readout: Kd (nM)
Just the number please, in nM, no unit attached.

Query: Could you tell me which Kd is on file for GGGAGGACGAUGCGGAAGUGAAGCUAAAGCGGAGGGCCAUUCAGUUUCNCACCACAGACGACUCGCCCGA [F14.2] ?
Response: 450

====

Target: L-selectin (LS-Rg) (Homo sapiens) (UniProt P14151)
Sequence: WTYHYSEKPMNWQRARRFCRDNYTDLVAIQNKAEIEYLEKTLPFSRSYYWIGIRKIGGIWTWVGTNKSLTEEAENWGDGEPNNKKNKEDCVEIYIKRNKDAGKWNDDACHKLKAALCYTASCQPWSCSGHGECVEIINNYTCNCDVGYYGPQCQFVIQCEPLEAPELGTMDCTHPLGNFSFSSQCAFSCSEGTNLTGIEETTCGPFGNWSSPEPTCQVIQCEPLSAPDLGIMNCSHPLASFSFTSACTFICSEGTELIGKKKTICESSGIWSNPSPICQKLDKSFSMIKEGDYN
Test: inhibition
Details: 2'-NH2 C and U; sialyl-LewisX competition ELISA
test_readout: pIC50
In textbook form, pIC50 equals minus log to base ten of the concentration in mol/L.

Query: Could you tell me which pIC50 is on file for GGGAGGACGAUGCGGUAACAACAAUCAAGGCGGGUUYACCGCCCCAGUAUGAGUACAGACGACUCGCCCGA [F14.12] ?
Response: 8.00

====

Target: L-selectin (LS-Rg) (Homo sapiens) (UniProt P14151)
Sequence: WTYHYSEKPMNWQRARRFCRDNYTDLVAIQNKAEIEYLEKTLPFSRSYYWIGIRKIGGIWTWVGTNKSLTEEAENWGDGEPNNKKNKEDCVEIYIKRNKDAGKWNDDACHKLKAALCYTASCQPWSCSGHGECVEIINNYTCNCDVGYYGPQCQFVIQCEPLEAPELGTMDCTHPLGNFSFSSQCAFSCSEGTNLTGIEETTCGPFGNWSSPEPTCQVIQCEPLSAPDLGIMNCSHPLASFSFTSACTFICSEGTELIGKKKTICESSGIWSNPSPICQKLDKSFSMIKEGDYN
Experiment: filter
Details: room temp; 890 pM at 37 C
test_readout: pKd
In textbook form, pKd equals minus log to base ten of the concentration in mol/L.

Query: Could you tell me which pKd is on file for CTACCTACGATCTGACTAGCCGAGGTAGTCGTTATAGGGTRCRCACGACACAAARCRGTRGCTTACTCTCATGTAGTTCC [LD127] ?
Response: 9.00
